test: reversal of MRP1-mediated doxorubicin resistance, pilot screen, H69AR cells, doxorubicin co-treatment (AID 601); details: H69AR cells, CellTiter-Glo, 72 h; compound alone cytotoxicity; at 10 µM
Quick list: viability per entry.
Provide the reading as a plain figure in %.

Here is how some compounds turned out for viability.
Task item: Given O=c1c(-c2ccc(Br)cc2)coc2c(CN3CCOCC3)c(O)ccc12 , state its recorded viability.
Reply: 92.2

Task item: Let us now turn to O=C(COC(=O)c1cc(-c2ccco2)nc2ccccc12)NCc1ccc2c(c1)OCO2
Reply: 96.8

Task item: Record: CCOC(=O)c1oc2ccccc2c1CSc1nnnn1-c1ccc(C)cc1
Reply: 69.3

Task item: Now the compound CCCCn1nnc(NC(=O)c2cc3ccccc3o2)n1
Reply: 81.6

Task item: And C=CCn1c(SCC(=O)Nc2ccccc2OC)nnc1-c1ccco1 ?
Reply: 67.7

---
Task item: Report viability for COc1cccc(OC)c1C(=O)Nc1ccc(CN2CCCCC2)cc1 please.
Reply: 89.4

Task item: Note, next up: CCCCOc1cc(=O)[nH]c(=O)[nH]1
Reply: 102

Task item: And COc1cccc(-n2nnnc2SCC(=O)NCc2ccco2)c1 ?
Reply: 83.2

Task item: Check CCCC(=O)Nc1ncnc2c1ncn2[C@@H]1O[C@@H]2COP(=O)(O)O[C@H]2[C@H]1OC(=O)CCC too.
Reply: 104

Task item: Also, O=C1N=C(N2CCOCC2)CS1 please.
Reply: 104

Task item: Note, next up: COc1ccc(C(=O)N(CCCO)Cc2cc3c(C)ccc(C)c3[nH]c2=O)cc1OC
Reply: 95.1
